- EXPERIMENTAL_CONTEXT: 323.15 K; 100 kPa; Liquid; Moving piston method
Hi there, I'd appreciate the recorded viscosity for every entry that follows.
Numeric answer only, unit mPa·s assumed.

stdin: Tell me the measured viscosity of CCn1cc[n+](C)c1.O=S(=O)([N-]S(=O)(=O)C(F)(F)F)C(F)(F)F , please.
stdout: 15.6

stdin: // query viscosity value for entry CCCCCCn1cc[n+](C)c1.F[B-](F)(F)F [1-hexyl-3-methylimidazolium tetrafluoroborate]
stdout: 58.5

stdin: Look up viscosity: CCCCCC[n+]1ccn(C)c1.O=S(=O)([N-]S(=O)(=O)C(F)(F)F)C(F)(F)F
stdout: 24.9

stdin: Entry under review: CCCCCCCCCCn1cc[n+](C)c1.O=S(=O)([N-]S(=O)(=O)C(F)(F)F)C(F)(F)F . Reported viscosity?
stdout: 36.2

stdin: # get_value(readout='viscosity', item= CCCCCCn1cc[n+](C)c1.F[P-](F)(F)(F)(F)F [1-hexyl-3-methylimidazolium hexafluorophosphate] )
stdout: 121.4

----------
- EXPERIMENTAL_CONTEXT: 343.15 K; 101.33 kPa; Liquid; Moving piston method
MEASUREMENT_NAME: viscosity (mPa·s)
# unit: mPa·s | format: bare number

stdin: Form field: reported viscosity of CCCCCC[n+]1ccn(C)c1.O=S(=O)([N-]S(=O)(=O)C(F)(F)F)C(F)(F)F
stdout: 14.1

stdin: Any idea what its viscosity is? The compound is CCCCCCCCCCn1cc[n+](C)c1.O=S(=O)([N-]S(=O)(=O)C(F)(F)F)C(F)(F)F
stdout: 18.2

stdin: Query (compound): CCn1cc[n+](C)c1.O=S(=O)([N-]S(=O)(=O)C(F)(F)F)C(F)(F)F ; field requested: viscosity
stdout: 9.55

stdin: Which viscosity value belongs to CCCCCCn1cc[n+](C)c1.F[B-](F)(F)F [1-hexyl-3-methylimidazolium tetrafluoroborate] ?
stdout: 27

stdin: Look up viscosity for this compound: CCCCCCn1cc[n+](C)c1.F[P-](F)(F)(F)(F)F [1-hexyl-3-methylimidazolium hexafluorophosphate]
stdout: 48.1

----------
Please go through the items and note down their viscosity.
- EXPERIMENTAL_CONTEXT: 298.15 K; 100 kPa; Liquid; Moving piston method
State the answer as a number, implicitly in mPa·s.

stdin: What viscosity value was documented for this molecule, CCn1cc[n+](C)c1.O=S(=O)([N-]S(=O)(=O)C(F)(F)F)C(F)(F)F ?
stdout: 34.4

stdin: Consider the molecule CCCCCC[n+]1ccn(C)c1.O=S(=O)([N-]S(=O)(=O)C(F)(F)F)C(F)(F)F and give its measured viscosity.
stdout: 70.96

stdin: viscosity lookup needed for CCCCn1cc[n+](C)c1.F[P-](F)(F)(F)(F)F [1-butyl-3-methylimidazolium hexafluorophosphate] , thanks.
stdout: 270.9

stdin: Bench note: what viscosity did CCCCCCn1cc[n+](C)c1.F[B-](F)(F)F [1-hexyl-3-methylimidazolium tetrafluoroborate] show?
stdout: 202

stdin: What value of viscosity has been recorded for this entry: CCCCCCCCCCn1cc[n+](C)c1.O=S(=O)([N-]S(=O)(=O)C(F)(F)F)C(F)(F)F
stdout: 108.2

stdin: Any idea what its viscosity is? The molecule is CCCCCCn1cc[n+](C)c1.F[P-](F)(F)(F)(F)F [1-hexyl-3-methylimidazolium hexafluorophosphate]
stdout: 481
